Molecular target: EGFR (form in the assay not stated) (human, UniProt P00533 25-645, limits assumed)
Test: ELISA, NEM conjugate 10 nM
Would you mind telling me the reported binding ratio vs parent P54AR4-83v2 of each entry?
Numbers only, in ratio.

[[record]]
binder = "P54AR4-83v2 L47C, NEM conjugate (designed binder, NEM on Cys 47, His-tagged) LPAPKNLVVSEVTEDSARLSWDDPWAFYESFLIQYQESEKVGEAIVCTVPGSERSYDLTGLKPGTEYTVSIYGVHNVYKDTNMRGLPLSAIFTT"
measured_metric = "binding ratio vs parent P54AR4-83v2"
output_unit = "ratio"
recorded_result = 0.92


# batch: return binding ratio vs parent P54AR4-83v2 for each of the 3 binders below
1. P54AR4-83v2 E39C, NEM conjugate (designed binder, NEM on Cys 39, His-tagged) LPAPKNLVVSEVTEDSARLSWDDPWAFYESFLIQYQESCKVGEAIVLTVPGSERSYDLTGLKPGTEYTVSIYGVHNVYKDTNMRGLPLSAIFTT
2. P54AR4-83v2 Q34C, NEM conjugate (designed binder, NEM on Cys 34, His-tagged) LPAPKNLVVSEVTEDSARLSWDDPWAFYESFLICYQESEKVGEAIVLTVPGSERSYDLTGLKPGTEYTVSIYGVHNVYKDTNMRGLPLSAIFTT
3. P54AR4-83v2 T48C, NEM conjugate (designed binder, NEM on Cys 48, His-tagged) LPAPKNLVVSEVTEDSARLSWDDPWAFYESFLIQYQESEKVGEAIVLCVPGSERSYDLTGLKPGTEYTVSIYGVHNVYKDTNMRGLPLSAIFTT

[0.9, 0.89, 0.88]
